target desc: human acetyl-CoA carboxylase 2 (ACC2) (Homo sapiens, UniProt O00763)
Construct: The cDNA encoding amino acids 144 to 2458 of human acetyl-CoA carboxylase 2; made in house; host or cells: Sf9 insect cells (baculovirus, pFastBac1)
Sequence (O00763 144-2458): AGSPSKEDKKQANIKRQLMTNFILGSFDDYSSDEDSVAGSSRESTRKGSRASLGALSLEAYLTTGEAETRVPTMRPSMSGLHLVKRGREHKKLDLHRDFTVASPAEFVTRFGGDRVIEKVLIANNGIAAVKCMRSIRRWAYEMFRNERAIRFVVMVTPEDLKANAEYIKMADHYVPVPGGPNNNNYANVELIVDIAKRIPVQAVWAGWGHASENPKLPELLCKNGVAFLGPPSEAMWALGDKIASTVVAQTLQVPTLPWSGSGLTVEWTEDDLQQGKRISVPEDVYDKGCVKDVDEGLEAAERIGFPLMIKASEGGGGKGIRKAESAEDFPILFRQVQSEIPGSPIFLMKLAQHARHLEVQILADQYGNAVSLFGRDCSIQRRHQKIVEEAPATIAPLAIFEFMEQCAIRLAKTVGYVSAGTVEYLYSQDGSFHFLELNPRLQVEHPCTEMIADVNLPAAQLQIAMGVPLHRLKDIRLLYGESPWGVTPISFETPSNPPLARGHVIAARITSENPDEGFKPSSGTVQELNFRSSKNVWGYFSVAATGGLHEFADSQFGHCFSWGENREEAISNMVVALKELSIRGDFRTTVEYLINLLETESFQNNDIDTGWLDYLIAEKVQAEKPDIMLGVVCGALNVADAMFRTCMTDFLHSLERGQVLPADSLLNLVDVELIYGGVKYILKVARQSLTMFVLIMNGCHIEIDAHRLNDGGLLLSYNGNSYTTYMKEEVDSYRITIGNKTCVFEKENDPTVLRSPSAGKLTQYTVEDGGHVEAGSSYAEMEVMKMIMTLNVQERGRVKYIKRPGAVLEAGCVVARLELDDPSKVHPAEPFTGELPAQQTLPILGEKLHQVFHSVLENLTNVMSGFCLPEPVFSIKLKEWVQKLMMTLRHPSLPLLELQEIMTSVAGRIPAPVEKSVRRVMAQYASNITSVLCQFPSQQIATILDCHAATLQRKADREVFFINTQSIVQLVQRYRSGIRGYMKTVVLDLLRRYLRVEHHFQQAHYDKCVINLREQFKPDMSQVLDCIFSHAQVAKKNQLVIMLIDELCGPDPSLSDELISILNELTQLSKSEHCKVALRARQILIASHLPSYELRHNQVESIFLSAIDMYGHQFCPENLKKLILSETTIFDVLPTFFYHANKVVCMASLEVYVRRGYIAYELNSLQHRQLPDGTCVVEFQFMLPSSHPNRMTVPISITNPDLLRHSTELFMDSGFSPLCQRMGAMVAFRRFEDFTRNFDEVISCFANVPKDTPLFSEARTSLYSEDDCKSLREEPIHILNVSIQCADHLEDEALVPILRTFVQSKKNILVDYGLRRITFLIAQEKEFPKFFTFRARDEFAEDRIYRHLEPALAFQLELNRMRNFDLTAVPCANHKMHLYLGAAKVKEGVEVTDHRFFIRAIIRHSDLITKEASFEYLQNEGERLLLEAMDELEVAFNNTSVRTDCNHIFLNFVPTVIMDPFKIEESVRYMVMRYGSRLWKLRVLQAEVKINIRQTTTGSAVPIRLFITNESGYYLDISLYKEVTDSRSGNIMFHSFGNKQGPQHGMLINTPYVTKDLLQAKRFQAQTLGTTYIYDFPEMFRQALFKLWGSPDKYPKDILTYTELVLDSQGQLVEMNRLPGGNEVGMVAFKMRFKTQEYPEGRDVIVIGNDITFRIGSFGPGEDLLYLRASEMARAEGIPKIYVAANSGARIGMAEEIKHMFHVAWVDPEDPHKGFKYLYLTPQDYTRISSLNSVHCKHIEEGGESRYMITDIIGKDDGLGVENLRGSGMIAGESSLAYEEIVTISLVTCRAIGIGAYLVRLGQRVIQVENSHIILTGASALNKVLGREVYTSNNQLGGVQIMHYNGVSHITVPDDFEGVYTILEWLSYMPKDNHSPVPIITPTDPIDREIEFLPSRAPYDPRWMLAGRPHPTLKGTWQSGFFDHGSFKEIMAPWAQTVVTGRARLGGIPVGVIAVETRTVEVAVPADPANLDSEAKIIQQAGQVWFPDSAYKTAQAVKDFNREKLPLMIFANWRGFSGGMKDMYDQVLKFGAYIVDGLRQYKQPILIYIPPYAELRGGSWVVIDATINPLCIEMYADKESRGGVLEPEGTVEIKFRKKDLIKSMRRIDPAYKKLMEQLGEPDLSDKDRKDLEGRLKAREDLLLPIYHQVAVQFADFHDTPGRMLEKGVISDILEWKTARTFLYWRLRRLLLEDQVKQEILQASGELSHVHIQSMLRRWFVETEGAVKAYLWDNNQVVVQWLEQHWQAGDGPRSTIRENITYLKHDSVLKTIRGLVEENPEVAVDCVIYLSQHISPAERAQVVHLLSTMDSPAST
measurement description: Acetyl-CoA carboxylase enzyme assay (malonyl-CoA formation by LC/MS/MS)
Assay type: biochemical
condition context: recombinant human ACC2 (aa 144-2458); read-out: IC50 ACC2
assay readout: IC50 (nM)
Expressed in nM, but write only the number.

Check out these entries, answers already filled in.
[
  {
    "compound": "CCOc1ccc2cc(S(=O)(=O)N[C@H]3CC[C@H](C(=O)N[C@@H](c4ccccc4)C(C)(C)O)CC3)ccc2n1",
    "IC50 (nM)": 20
  },
  {
    "compound": "COc1ccc(Nc2nc3cc(S(=O)(=O)Nc4ccc(-c5nnc(C(C)(C)C)o5)cc4)ccc3[nH]2)cc1",
    "IC50 (nM)": 676
  },
  {
    "compound": "C[C@@H](NC(=O)[C@H]1CC[C@H](NS(=O)(=O)c2ccc3nc(N4CCN(C)CC4)ccc3c2)CC1)c1ccc(F)cc1",
    "IC50 (nM)": 50
  },
  {
    "compound": "CN(C)CCNC(=O)[C@H]1CC[C@H](NS(=O)(=O)c2ccc3[nH]c(-c4ccccc4)nc3c2)CC1",
    "IC50 (nM)": 10300
  },
  {
    "compound": "O=C(O)CCc1ccc(-c2cc3ccc(S(=O)(=O)N[C@H]4CC[C@H](C(=O)N5CCCCC5)CC4)cc3[nH]2)cc1",
    "IC50 (nM)": 35
  },
  {
    "compound": "C[C@H](c1ccccc1)N(C)C(=O)[C@H]1CC[C@H](NS(=O)(=O)c2ccc3[nH]c(-c4ccccc4)nc3c2)CC1",
    "IC50 (nM)": 61
  }
]

// fetch human acetyl-CoA carboxylase 2 (ACC2) (Homo sapiens, UniProt O00763) IC50 for CCOC(=O)C1(C)CCC(NS(=O)(=O)c2ccc3c(ccn3C)c2)CC1 (stereo not shown)
760

* * *

target desc: human acetyl-CoA carboxylase 2 (ACC2) (Homo sapiens, UniProt O00763)
Construct: The cDNA encoding amino acids 144 to 2458 of human acetyl-CoA carboxylase 2; made in house; host or cells: Sf9 insect cells (baculovirus, pFastBac1)
measurement description: Acetyl-CoA carboxylase enzyme assay (malonyl-CoA formation by LC/MS/MS)
Format: biochemical
condition context: recombinant human ACC2 (aa 144-2458); read-out: IC50 ACC2
assay readout: IC50 (nM)
State just the number; it will be interpreted in nM.

# example entries with known answers
[
  {
    "molecule": "C[C@@H](NC(=O)[C@H]1CC[C@H](NS(=O)(=O)c2ccc3nc(-c4cccc(C(=O)O)c4)ccc3c2)CC1)c1ccc(F)cc1",
    "result": 10
  },
  {
    "molecule": "C[C@@H](NC(=O)[C@H]1CC[C@H](NS(=O)(=O)c2ccc3nc(OCC(C)(C)O)ccc3c2)CC1)c1ccc(F)cc1",
    "result": 95
  },
  {
    "molecule": "COC(=O)C(C)(C)[C@@H](NC(=O)[C@H]1CC[C@H](NS(=O)(=O)c2ccc3cc(C4CC4)n(C)c3c2)CC1)c1ccccc1",
    "result": 10
  },
  {
    "molecule": "CN1CCN(C(=O)[C@H]2CC[C@H](NS(=O)(=O)c3cnc4ccccc4c3)CC2)C(c2ccccc2)C1 (stereo partly shown)",
    "result": 4220
  }
]

API: the following record is the query input.
GET /values?readout=IC50&system=human acetyl-CoA carboxylase 2 (ACC2) (Homo sapiens, UniProt O00763)&item= C[C@@H]1CCCN1C(=O)[C@H]1CC[C@H](NS(=O)(=O)c2cnc3c(c2)N(C)CCN3C)CC1
10400

* * *

target desc: human acetyl-CoA carboxylase 2 (ACC2) (Homo sapiens, UniProt O00763)
Construct: The cDNA encoding amino acids 144 to 2458 of human acetyl-CoA carboxylase 2; made in house; host or cells: Sf9 insect cells (baculovirus, pFastBac1)
measurement description: Acetyl-CoA carboxylase enzyme assay (malonyl-CoA formation by LC/MS/MS)
Type: biochemical
condition context: recombinant human ACC2 (aa 144-2458); read-out: IC50 ACC2
assay readout: IC50 (nM)
Give the number; nM is assumed, so skip it.

Consider the following illustrative entries.
[
  {
    "compound": "C[C@@H](NC(=O)[C@H]1CC[C@H](NS(=O)(=O)c2cnc3c(c2)CCCN3C)CC1)c1ccc(F)cc1",
    "unit label": "nM",
    "IC50": 128
  },
  {
    "compound": "C[C@@H](NC(=O)[C@H]1CC[C@H](NS(=O)(=O)c2ccc3c(c2)CCC(C)(C)O3)CC1)c1ccc(F)cc1",
    "unit label": "nM",
    "IC50": 314
  },
  {
    "compound": "C[C@@H](NC(=O)[C@H]1CC[C@H](NS(=O)(=O)c2ccc3nc(N4CCN(C(=O)OC(C)(C)C)CC4)ccc3c2)CC1)c1ccc(F)cc1",
    "unit label": "nM",
    "IC50": 765
  },
  {
    "compound": "CCOc1ccc2cc(S(=O)(=O)N[C@H]3CC[C@H](C(=O)N[C@H](CC(=O)OC(C)(C)C)c4ccccc4)CC3)ccc2n1",
    "unit label": "nM",
    "IC50": 180
  },
  {
    "compound": "C[C@@H](NC(=O)[C@H]1CC[C@H](NS(=O)(=O)c2cnc3c(c2)NCC(C)(C)CN3)CC1)c1ccc(F)cc1",
    "unit label": "nM",
    "IC50": 440
  }
]

Kindly consider the entry below.
Form field: IC50 recorded for Cc1ccccc1-c1cc2ccc(S(=O)(=O)N[C@H]3CC[C@H](C(=O)N4CCOCC4)CC3)cc2[nH]1 with human acetyl-CoA carboxylase 2 (ACC2) (Homo sapiens, UniProt O00763) (enter value)
187

* * *

target desc: human acetyl-CoA carboxylase 2 (ACC2) (Homo sapiens, UniProt O00763)
Construct: The cDNA encoding amino acids 144 to 2458 of human acetyl-CoA carboxylase 2; made in house; host or cells: Sf9 insect cells (baculovirus, pFastBac1)
measurement description: Acetyl-CoA carboxylase enzyme assay (malonyl-CoA formation by LC/MS/MS)
Assay type: biochemical
condition context: recombinant human ACC2 (aa 144-2458); read-out: IC50 ACC2
pIC50: −log10 of the molar value.
If the reported pIC50 equals or exceeds 7, assign fulfilled. If not, assign not fulfilled.

Quick check: does C[C@@H](NC(=O)[C@H]1CC[C@H](NS(=O)(=O)c2ccc3c(c2)NCCN3)CC1)c1ccc(F)cc1 have pIC50 greater than or equal to 7?
not fulfilled

Evaluate Cc1ccccc1-c1cc2ccc(S(=O)(=O)N[C@H]3CC[C@H](C(=O)N4CCNC[C@@H]4c4ccccc4)CC3)cc2[nH]1 : pIC50 at minimum 7?
fulfilled

Hello, I need to know if C[C@H]1C[C@H](C)CN(C(=O)[C@H]2CC[C@H](NS(=O)(=O)c3ccc4[nH]c(-c5ccccc5)nc4c3)CC2)C1 has measured pIC50 not below 7. Thanks!
fulfilled

Is it the case that COCCc1ccc(-c2[nH]c3cc(S(=O)(=O)N[C@H]4CC[C@H](C(=O)N5CCOC[C@@H]5C(C)C)CC4)ccc3c2Cl)cc1 has pIC50 reaching or exceeding 7?
fulfilled

Confirm if pIC50 reported for the compound C[C@H]1CCCCN1C(=O)[C@H]1CC[C@H](NS(=O)(=O)c2ccc3c(Cl)c(-c4ccc(CCC(=O)O)cc4)n(C)c3c2)CC1 is 7 or above.
fulfilled

* * *

target desc: human acetyl-CoA carboxylase 2 (ACC2) (Homo sapiens)
Construct: The cDNA encoding amino acids 144 to 2458 of human acetyl-CoA carboxylase 2; made in house; host or cells: Sf9 insect cells (baculovirus, pFastBac1)
measurement description: Acetyl-CoA carboxylase enzyme assay (malonyl-CoA formation by LC/MS/MS)
Type: biochemical
condition context: recombinant human ACC2 (aa 144-2458); read-out: IC50 ACC2
From the text: The cDNA encoding amino acids 144 to 2458 of human acetyl-CoA carboxylase 2 (ACC2, GenBank Accession #NM_001093) was cloned into the SalI and NotI sites of pFastBac1 (Invitrogen; Carlsbad, Calif.). The resulting plasmid was used to generate a recombinant ACC2 baculovirus that was amplified and titered according to the protocols in the Bac-to-Bac baculovirus expression system manual (Invitrogen). […]
assay readout: pIC50
The meaning of pIC50 here: minus log10 of the concentration in molar units.

// worked examples, pIC50 included
[
  {
    "molecule": "CC(C)c1nnc(-c2ccc(NS(=O)(=O)c3ccc4[nH]c(Nc5ccccc5)nc4c3)cc2)o1 [Example 601]",
    "target desc": "human acetyl-CoA carboxylase 2 (ACC2) (Homo sapiens)",
    "pIC50": 6.27
  },
  {
    "molecule": "CC(C)OC(=O)c1ccc(NS(=O)(=O)c2ccc3[nH]c(Nc4ccc(N(C)C)cc4)nc3c2)cc1 [Example 551]",
    "target desc": "human acetyl-CoA carboxylase 2 (ACC2) (Homo sapiens)",
    "pIC50": 6.55
  },
  {
    "molecule": "C[C@@H](NC(=O)[C@H]1CC[C@H](NS(=O)(=O)c2ccc3nc(OCC(=O)O)ccc3c2)CC1)c1ccc(F)cc1 [Example 78]",
    "target desc": "human acetyl-CoA carboxylase 2 (ACC2) (Homo sapiens)",
    "pIC50": 6.33
  }
]

Request - read-out pIC50 | tested on human acetyl-CoA carboxylase 2 (ACC2) (Homo sapiens) | molecule CC(C)OC(=O)c1ccc(NS(=O)(=O)c2ccc3nc(-c4ccc(C(C)O)cc4)[nH]c3c2)cc1 (stereo not shown) [Example 517]
6.61
